The reported numbers originate from patent US8791131B2.

- system_under_test: PI3-Kα (Mus musculus (Mouse))
- Sequence (P42337 whole entry, the tested form may be a part): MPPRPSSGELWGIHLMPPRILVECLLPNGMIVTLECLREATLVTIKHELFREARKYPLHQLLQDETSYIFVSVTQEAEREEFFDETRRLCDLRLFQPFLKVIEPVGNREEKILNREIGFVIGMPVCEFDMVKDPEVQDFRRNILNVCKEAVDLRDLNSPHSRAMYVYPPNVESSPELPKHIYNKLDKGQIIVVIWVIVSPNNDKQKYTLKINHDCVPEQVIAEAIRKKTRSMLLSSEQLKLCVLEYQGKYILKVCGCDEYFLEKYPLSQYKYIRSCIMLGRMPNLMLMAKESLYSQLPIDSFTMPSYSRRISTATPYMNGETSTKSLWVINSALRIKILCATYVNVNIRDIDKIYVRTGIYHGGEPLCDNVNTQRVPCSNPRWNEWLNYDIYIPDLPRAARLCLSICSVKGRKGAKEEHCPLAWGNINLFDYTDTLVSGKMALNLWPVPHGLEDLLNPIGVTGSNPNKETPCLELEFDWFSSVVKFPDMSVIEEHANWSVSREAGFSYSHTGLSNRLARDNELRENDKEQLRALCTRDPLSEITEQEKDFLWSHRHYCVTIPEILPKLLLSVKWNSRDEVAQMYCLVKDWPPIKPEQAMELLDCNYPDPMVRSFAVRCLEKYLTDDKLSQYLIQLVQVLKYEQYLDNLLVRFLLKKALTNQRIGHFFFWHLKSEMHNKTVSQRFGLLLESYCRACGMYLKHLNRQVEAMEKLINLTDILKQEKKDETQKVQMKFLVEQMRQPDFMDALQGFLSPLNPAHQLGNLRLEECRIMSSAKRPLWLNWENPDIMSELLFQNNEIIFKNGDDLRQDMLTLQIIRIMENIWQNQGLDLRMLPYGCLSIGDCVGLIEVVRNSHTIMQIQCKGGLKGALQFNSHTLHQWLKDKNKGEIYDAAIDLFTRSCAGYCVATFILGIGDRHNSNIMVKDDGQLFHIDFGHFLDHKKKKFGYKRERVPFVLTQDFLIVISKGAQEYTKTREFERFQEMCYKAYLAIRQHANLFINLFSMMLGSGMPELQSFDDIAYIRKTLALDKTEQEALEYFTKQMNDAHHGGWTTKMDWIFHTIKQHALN
- Sequence (P26450 whole entry partner, the tested form may be a part): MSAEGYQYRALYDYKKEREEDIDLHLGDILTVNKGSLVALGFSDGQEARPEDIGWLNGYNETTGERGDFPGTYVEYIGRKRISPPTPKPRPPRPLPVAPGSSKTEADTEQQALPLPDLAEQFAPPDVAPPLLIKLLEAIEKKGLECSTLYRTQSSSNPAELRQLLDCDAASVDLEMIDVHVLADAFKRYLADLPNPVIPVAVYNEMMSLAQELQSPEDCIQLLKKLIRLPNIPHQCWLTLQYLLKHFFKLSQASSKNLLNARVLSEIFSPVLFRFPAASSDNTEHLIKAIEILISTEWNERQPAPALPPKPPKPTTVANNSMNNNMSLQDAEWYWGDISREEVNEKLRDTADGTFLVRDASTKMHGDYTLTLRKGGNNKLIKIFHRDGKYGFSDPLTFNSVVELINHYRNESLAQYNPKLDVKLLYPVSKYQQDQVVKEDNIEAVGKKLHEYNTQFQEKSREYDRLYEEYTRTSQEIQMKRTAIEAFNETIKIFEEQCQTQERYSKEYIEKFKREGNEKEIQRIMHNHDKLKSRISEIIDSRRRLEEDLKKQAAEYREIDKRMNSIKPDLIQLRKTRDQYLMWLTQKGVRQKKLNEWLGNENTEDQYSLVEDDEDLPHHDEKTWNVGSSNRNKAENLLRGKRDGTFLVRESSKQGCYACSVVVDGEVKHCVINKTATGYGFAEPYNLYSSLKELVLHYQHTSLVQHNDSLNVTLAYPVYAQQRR
- method: PI3-Kα biochemical assay (in vitro kinase assay, fluorescence polarization);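 further: Insect-cell-expressed mouse p110/p85 complex converting PI(4,5)P2, product PI(3,4,5)P3 detected by displacing TAMRA-tagged PI(3,4,5)P3 from Grip1 PH domain, lower polarization means more product, room temperature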
- condition_set: Ki calculated from IC50, [ATP]=30 uM, Km=25 uM
Response field class: enum, chosen by comparing PI3Ka Ki against low bin = under 3 nM, mid bin = from 3 nM up to 6 nM, high bin = 6 nM and over

Kindly identify the class of COc1ccc(-c2ccc3ncc4c(c3n2)n(CCN2CCOCC2)c(=O)n4C)cn1 .
high bin

Kindly identify the class of Cn1c(=O)n(C2CCNCC2)c2c3nc(-c4cnn(CCO)c4)ccc3ncc21 .
high bin

Kindly identify the class of CCNC(=O)Nc1ccc(-c2ccc3ncc4c(c3n2)n(C2CCN(C(=O)OC(C)(C)C)CC2)c(=O)n4C)cc1 .
mid bin

Kindly identify the class of COc1ccc(-c2ccc3ncc4c(c3n2)n(C2CCN(C(=O)CN(C)C)CC2)c(=O)n4C)cn1 .
low bin

Kindly identify the class of CC(C)C(=O)N1CCC(n2c(=O)n(C)c3cnc4ccc(-c5cnc6ccccc6c5)nc4c32)CC1 .
low bin

Kindly identify the class of C[C@@H](CO)n1c(=O)n(C)c2cnc3ccc(-c4cnn(C)c4)nc3c21 .
high bin

Kindly identify the class of CN(C)c1ccc(-c2ccc3ncc4c(c3n2)n(C2CCN(C(=O)CO)CC2)c(=O)n4C)cn1 .
low bin

Kindly identify the class of COc1ccc(-c2ccc3ncc4c(c3n2)n(C2CCN(C(C)=O)CC2)c(=O)n4C)cc1 .
high bin

Kindly identify the class of Cn1cc(-c2ccc3ncc4c(c3n2)n(C2CCN(C(=O)C(C)(C)O)CC2)c(=O)n4C)cn1 .
mid bin

Kindly identify the class of Cc1ccc(-c2ccc3ncc4c(c3n2)n(C2CCN(c3ncccn3)CC2)c(=O)n4C)cn1 .
mid bin

Kindly identify the class of Cc1ccc(-c2ccc3ncc4c(c3n2)n(C2CCOCC2)c(=O)n4CCO)cn1 .
high bin

Kindly identify the class of Cc1ccc(-c2ccc3ncc4c(c3n2)n(C2CCN(C(=O)CN(C)C)CC2)c(=O)n4C)cn1 .
mid bin

Kindly identify the class of COc1ccc(-c2ccc3ncc4c(c3n2)n(C2CCN(C(C)C)CC2)c(=O)n4C)cn1 .
mid bin

Kindly identify the class of Cc1ccc(-c2ccc3ncc4c(c3n2)n(C2CCOCC2)c(=O)n4C)cn1 .
low bin

Kindly identify the class of CN(C)CC(=O)N1CCC(n2c(=O)n(C)c3cnc4ccc(-c5ccc(N(C)C)nc5)nc4c32)CC1 .
low bin

---

- system_under_test: mTOR (Homo sapiens (Human))
- Sequence (P42345 2156-2469): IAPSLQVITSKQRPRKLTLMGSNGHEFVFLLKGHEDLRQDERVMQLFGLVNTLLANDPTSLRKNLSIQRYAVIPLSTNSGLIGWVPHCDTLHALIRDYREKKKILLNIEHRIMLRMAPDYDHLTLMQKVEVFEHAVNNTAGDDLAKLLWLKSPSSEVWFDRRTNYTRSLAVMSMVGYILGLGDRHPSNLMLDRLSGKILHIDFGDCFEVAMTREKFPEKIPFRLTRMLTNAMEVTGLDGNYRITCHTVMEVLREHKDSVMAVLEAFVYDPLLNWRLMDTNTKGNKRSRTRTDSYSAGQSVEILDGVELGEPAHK
- method: biochemical
Each record is given met if its reported Ki is strictly below 7 nM. Records at or above 7 nM are given not met.

Please determine if CC(C)(C#N)c1ccc(-n2c(=O)[nH]c3cnc4ccc(-c5cnc6ccccc6c5)nc4c32)cc1 is below 7 nM in terms of Ki.
met

Please determine if Cn1c(=O)n(-c2ccc(C(C)(C)C#N)cc2)c2c3nc(-c4cnc5ccccc5c4)ccc3ncc21 is below 7 nM in terms of Ki.
met

Please determine if COc1ncc(-c2ccc3ncc4c(c3n2)n(C2CCN(C(=O)CO)CC2)c(=O)n4C)cn1 is below 7 nM in terms of Ki.
met

Please determine if Cn1c(=O)n([C@H]2CC[C@H](O)CC2)c2c3nc(-c4cnn(CCO)c4)ccc3ncc21 is below 7 nM in terms of Ki.
not met

Please determine if CC(=O)N1CCC(n2c(=O)n(C)c3cnc4ccc(-c5cccc6ncccc56)nc4c32)CC1 is below 7 nM in terms of Ki.
not met

Please determine if CNC(=O)N1CCC(n2c(=O)n(C)c3cnc4ccc(-c5cnc(OC)nc5)nc4c32)CC1 is below 7 nM in terms of Ki.
met

---

- system_under_test: UniProt P42345
Each record is given fulfilled if its reported Ki is strictly below 3 nM. Records at or above 3 nM are given not fulfilled.

Please determine if C[C@@H](CO)n1c(=O)n(C)c2cnc3ccc(-c4cnn(C)c4)nc3c21 is below 3 nM in terms of Ki.
not fulfilled

Please determine if COCC(=O)N1CCC(n2c(=O)n(C)c3cnc4ccc(-c5cnc6[nH]ncc6c5)nc4c32)CC1 is below 3 nM in terms of Ki.
fulfilled

Please determine if Cn1cc(-c2ccc3ncc4c(c3n2)n([C@H]2CC[C@H](O)CC2)c(=O)n4C)cn1 is below 3 nM in terms of Ki.
not fulfilled

Please determine if COc1ccc(-c2ccc3ncc4c(c3n2)n(C2CCOCC2)c(=O)n4CCO)cn1 is below 3 nM in terms of Ki.
not fulfilled

Please determine if Cc1ccc(-c2ccc3ncc4c(c3n2)n(C2CCN(C(=O)CN(C)C)CC2)c(=O)n4C)cn1 is below 3 nM in terms of Ki.
fulfilled

Please determine if CN(C)c1ccc(-c2ccc3ncc4c(c3n2)n(C2CCOCC2)c(=O)n4CCO)cn1 is below 3 nM in terms of Ki.
not fulfilled

Please determine if Cn1c(=O)n(C2CCN(C(=O)CO)CC2)c2c3nc(-c4cccc5[nH]ncc45)ccc3ncc21 is below 3 nM in terms of Ki.
fulfilled

Please determine if Cc1ccc(-c2ccc3ncc4c(c3n2)n([C@H]2CC[C@H](O)CC2)c(=O)n4C)cn1 is below 3 nM in terms of Ki.
not fulfilled

Please determine if C[C@H](CO)n1c(=O)n(C)c2cnc3ccc(-c4cnc5[nH]ncc5c4)nc3c21 is below 3 nM in terms of Ki.
not fulfilled

Please determine if Cn1c(=O)n([C@H]2CC[C@H](O)CC2)c2c3nc(-c4cn[nH]c4)ccc3ncc21 is below 3 nM in terms of Ki.
fulfilled

Please determine if CC(=O)N1CCC(n2c(=O)n(C)c3cnc4ccc(-c5cnn(C)c5)nc4c32)CC1 is below 3 nM in terms of Ki.
not fulfilled

Please determine if COc1ccc(-c2ccc3ncc4c(c3n2)n(C2CCN(CC(N)=O)CC2)c(=O)n4C)cn1 is below 3 nM in terms of Ki.
not fulfilled

Please determine if Cn1cc(-c2ccc3ncc4c(c3n2)n(C2CCN(C(=O)C(C)(C)O)CC2)c(=O)n4C)cn1 is below 3 nM in terms of Ki.
not fulfilled

Please determine if Cc1ccc(-c2ccc3ncc4c(c3n2)n(C2CCN(CC(N)=O)CC2)c(=O)n4C)cn1 is below 3 nM in terms of Ki.
fulfilled

Please determine if Cn1c(=O)n(C2CCN(C(=O)CO)CC2)c2c3nc(-c4ccnc5[nH]ncc45)ccc3ncc21 is below 3 nM in terms of Ki.
fulfilled

Please determine if COc1ncc(-c2ccc3ncc4c(c3n2)n(C2CCN(C(=O)[C@H](C)O)CC2)c(=O)n4C)cn1 is below 3 nM in terms of Ki.
fulfilled

---

For each record, write down the corresponding pKi.
- system_under_test: UniProt:P42345
Bear in mind: pKi is minus log10 of a mol/L concentration; give just that figure.

Complete the entry with pKi for Cn1c(=O)n(C2CCN(CC(F)(F)F)CC2)c2c3nc(-c4cnc5ccccc5c4)ccc3ncc21
8.02

Complete the entry with pKi for CC(=O)N1CCC(n2c(=O)n(C)c3cnc4ccc(-c5ccnc6[nH]ncc56)nc4c32)CC1
8.33

Complete the entry with pKi for COc1ccc(-c2ccc3ncc4c(c3n2)n([C@@H](C)CO)c(=O)n4C)cn1
7.54

Complete the entry with pKi for COc1ccc(-c2ccc3ncc4[nH]c(=O)n([C@H]5CC[C@H](O)CC5)c4c3n2)cn1
8.86

Complete the entry with pKi for Cn1c(=O)n(C2CCOCC2)c2c3nc(-c4cnn(CCO)c4)ccc3ncc21
7.35

Complete the entry with pKi for Cn1c(=O)n(C2CCNCC2)c2c3nc(-c4cnn(CCO)c4)ccc3ncc21
6.98

Complete the entry with pKi for Cn1cc(-c2ccc3ncc4c(c3n2)n(C2CCOCC2)c(=O)n4C)cn1
7.14

Complete the entry with pKi for Cc1ccc(-c2ccc3ncc4c(c3n2)n(C2CCN(c3ncccn3)CC2)c(=O)n4C)cn1
7.14

Complete the entry with pKi for CC(C)C(=O)N1CCC(n2c(=O)n(C)c3cnc4ccc(-c5cnc6ccccc6c5)nc4c32)CC1
8.31

Complete the entry with pKi for CCN1CCC(n2c(=O)n(C)c3cnc4ccc(-c5cnc6ccccc6c5)nc4c32)CC1
8.09

Complete the entry with pKi for COc1ncc(-c2ccc3ncc4c(c3n2)n(C2CCN(C(C)=O)CC2)c(=O)n4C)cn1
8.43

Complete the entry with pKi for CCOC(=O)N1CCC(n2c(=O)n(C)c3cnc4ccc(-c5cnc6ccccc6c5)nc4c32)CC1
8.37

Complete the entry with pKi for COCCN1CCC(n2c(=O)n(C)c3cnc4ccc(-c5ccc(N(C)C)nc5)nc4c32)CC1
8.09

Complete the entry with pKi for Cc1ccc(-c2ccc3ncc4c(c3n2)n(C2CCN(CCO)CC2)c(=O)n4C)cn1
7.75

Complete the entry with pKi for Cn1c(=O)n(C2CCNCC2)c2c3nc(-c4cnc(N)nc4)ccc3ncc21
8.44

Complete the entry with pKi for Cn1cc(-c2ccc3ncc4c(c3n2)n(C2CCN(CC(N)=O)CC2)c(=O)n4C)cn1
8.12
